# Test system: SK-MEL-2 melanoma
# Assay Procedure: NCI tumour cell line growth inhibition, 48 h
Quantity Measured: log10(TGI) (log10 of the value in µM)
In our notation, the value equals log10 of TGI in µM.

Examples with answers:
molecule=CC(=O)Nc1c2sscc-2n(C)c1=O target_system="SK-MEL-2 melanoma" observed_measurement=0.53
molecule=Cc1cncc(-c2nc(NCCc3c[nH]c4ccccc34)c3ncn(C(C)C)c3n2)c1 target_system="SK-MEL-2 melanoma" observed_measurement=0.99

According to the records, this molecule CCC(CC)c1cc(N[C@H]2CC[C@H](N)C2)n2nccc2n1 displays log10(TGI) of 0.56

According to the records, this molecule O=C(CN1CCN(CCN2C(=O)c3cccc4cccc(c34)C2=O)CC1)Nc1ccc2ncsc2c1 displays log10(TGI) of 1.37

According to the records, this molecule Fc1ccc(Nc2ncc(-c3cc(F)c(Cl)cc3Cl)s2)cc1Cl displays log10(TGI) of 1.76

According to the records, this molecule CCCCCCCCCCCCNC(=O)N[C@H](C(=O)N[C@H]1/C=C/CCNC(=O)/C=C/[C@H](C)NC1=O)C(C)C displays log10(TGI) of -0.20

According to the records, this molecule Cc1cc(Cl)ccc1NC(=O)CC1SC(=NC(=O)c2ccccc2Cl)NC1=O (configuration not stated) displays log10(TGI) of 1.85

According to the records, this molecule COc1cccc(C2c3cc4c(cc3OC(NNC(N)=O)C2C)OCO4)c1O (configuration not stated) displays log10(TGI) of 1.65

* * *

Measured TGI values are reported for all entries that follow.
# Tested on: SNB-19 CNS
# Assay Procedure: NCI tumour cell line growth inhibition, 48 h

molecule="N#CC(C(=O)CCC(=O)Nc1ccc(Cl)cc1)c1ccc(Cl)cc1 (stereo not drawn)" observed_measurement="> 100 µM"
molecule="CC(C)C1CC(CO)(CNc2nc(N)nc(Cl)c2/C=N\\O)C1 (stereo not drawn)" observed_measurement="> 100 µM"
molecule="CC(C)(C)[Si](C)(C)OC1[C@@H](O[Si](C)(C)C(C)(C)C)[C@@H](CNC(=O)NC(=O)NC(=O)CCl)O[C@H]1n1cnc2c(NC(=O)Nc3ccccc3)ncnc21 (stereo partly drawn)" observed_measurement="48.6 µM"
molecule="CO[C@H](C(=O)O[C@H]1C(=O)N2CC[C@@H]3CCC[C@H]1C32C)c1ccccc1 (stereo partly drawn)" observed_measurement="> 100 µM"
molecule=CON=C1C[C@]2(C[C@@H]3C[C@@H](C/C=C(\C)C[C@@H](C)/C=C/C=C4\CO[C@@H]5[C@H](O)C(C)=C[C@@H](C(=O)O3)[C@]45O)O2)O[C@H](/C(C)=C/C(C)C)[C@H]1C observed_measurement="35.3 µM"

According to the records, this molecule Cc1cc2c(C(=O)NCC#N)cccc2n1-c1nc2c(c(NCc3ccccc3)n1)CCCC2 displays TGI of 2.91 µM

According to the records, this molecule CC(=O)NC(CS)C(=O)O (stereo not drawn) displays TGI of > 100 µM

According to the records, this molecule COc1ccc2nc3c(C)cc4ccccc4n3c2c1 displays TGI of > 100 µM

* * *

# Tested on: LOX IMVI melanoma
# Assay Procedure: NCI tumour cell line growth inhibition, 48 h
Quantity Measured: TGI (µM)
Please respond with the number in µM and leave the unit unwritten.

Examples with answers:
compound_string=O=c1c2cccc(F)c2sc2c(NCCCNCCO)nc3ccccc3c12 observed_measurement=2.38
compound_string=O=C(COc1cccc(/C=C2\COc3ccccc3C2=O)c1)c1ccccc1 observed_measurement=3.12

Query compound follows.
According to the records, this compound C/C(=N\Nc1nc2ccccc2o1)c1ncccn1 displays TGI of 0.199
